- Test system: HepG2
- assay.details: cytotoxicity call (relative viability < 0.9)
- experimental.conditions: 10 µM
Among all 39,000 compounds or so, about 3,300 (8.5%) were called active. This is one part of a sample in which actives are shown more often than they occur.
readout: cytotoxicity call

Recorded cytotoxicity call, per entry:
C[C@@H]1CCCCO[C@@H](CN(C)CC2CCCCC2)[C@H](C)CN([C@H](C)CO)C(=O)c2cc(NC(=O)Nc3ccc(F)cc3)ccc2O1 active
COc1ccc(NC(=O)Nc2ccc3c(c2)CC(=O)N([C@@H](C)CO)C[C@@H](C)[C@@H](CN(C)Cc2ccc(Cl)c(Cl)c2)O3)cc1 active
C[C@@H]1CCCCO[C@@H](CN(C)CC2CCCCC2)[C@H](C)CN([C@@H](C)CO)C(=O)c2cc(NC(=O)Nc3ccc(F)cc3)ccc2O1 active
COc1ccc(NC(=O)Nc2ccc3c(c2)CC(=O)N([C@H](C)CO)C[C@H](C)[C@H](CN(C)Cc2ccc(Cl)c(Cl)c2)O3)cc1 active
Cc1noc(C)c1NC(=O)Nc1ccc2c(c1)C(=O)N([C@H](C)CO)C[C@@H](C)[C@H](CN(C)Cc1ccc(C(F)(F)F)cc1)O2 inactive

(Q) What does the data say about its cytotoxicity call? Entry: C[C@@H]1CN([C@@H](C)CO)C(=O)c2cc(NC(=O)Nc3ccc(F)cc3)ccc2O[C@@H](C)CCCCO[C@@H]1CN(C)CC1CCCCC1
(A) active

(Q) For the molecule C[C@H]1CCCCO[C@@H](CN(C)C(=O)Nc2ccccc2)[C@@H](C)CN([C@@H](C)CO)C(=O)c2cc(NS(=O)(=O)c3ccc(Cl)cc3)ccc2O1 , what cytotoxicity call is on record?
(A) inactive

(Q) Name the recorded cytotoxicity call for COc1ccc(OCc2c(-c3ccccc3)nnn2CC(=O)NS(=O)(=O)c2cccc(C#N)c2)cc1 .
(A) inactive
